Test: Fraction unbound in mouse plasma after 4.5 hrs by LC-MS/MS analysis
Type: ADME, cell-free
Measurement name: fraction unbound at 4.5 h
Numbers only.

As a guide, the following entries are already answered.
                       input_smiles           measurement_name  value_reported
0  CCc1nc2cc(Cl)ccc2n1CCCCOc1ccccc1  fraction unbound at 4.5 h           0.004
1      CCc1nc2ccccc2n1CCCCNc1ccccc1  fraction unbound at 4.5 h           0.045

Consider the additional molecule presented here.
[Q] Give me measured fraction unbound at 4.5 h, please, for this molecule: `CCc1nc2ccccc2n1CCCCSc1nnc(-c2ccc(Cl)cc2)o1`
[A] 0.006

====

Assay: Cytotoxicity against African green monkey Vero cells after 2 days by luminescent assay
Format: cell-based
Conditions: chlorocebus sabaeus, read-out: TC50
In plain terms, low CC50 at 48 h, meaning strictly below 20 µM, gives MET, and everything else gives NOT MET.

[Q] is_below(CC50 at 48 h, 20 µM) for `CCc1nc2cc(Cl)ccc2n1CCCCOc1ccccc1` ?
[A] MET

[Q] is_below(CC50 at 48 h, 20 µM) for `CCc1nc2ccc(C)cc2n1CCCOc1ccc(C)c(Cl)c1` ?
[A] MET

[Q] is_below(CC50 at 48 h, 20 µM) for `CC(=O)Nc1nc2ccc(C)cc2n1CCCCOc1ccc(C)c(Cl)c1` ?
[A] MET

[Q] is_below(CC50 at 48 h, 20 µM) for `CCc1nc2ccccc2n1CCCCOc1ccc(OC)cc1` ?
[A] NOT MET

[Q] is_below(CC50 at 48 h, 20 µM) for `CCc1nc2ccccc2n1CCCCNc1ccccc1` ?
[A] NOT MET

[Q] is_below(CC50 at 48 h, 20 µM) for `CCc1nc2ccc(C)cc2n1CCCNc1ccc(Br)c(C)c1` ?
[A] NOT MET

[Q] is_below(CC50 at 48 h, 20 µM) for `CCc1nc2ccccc2n1CCCCOc1ccc(C)c(C)c1` ?
[A] MET

[Q] is_below(CC50 at 48 h, 20 µM) for `CCc1nc2ccc(OC)cc2n1CCCCOc1ccccc1` ?
[A] NOT MET

[Q] is_below(CC50 at 48 h, 20 µM) for `CCc1nc2ccccc2n1CCCCOc1ccc(Cl)c(F)c1` ?
[A] MET

[Q] is_below(CC50 at 48 h, 20 µM) for `CCc1nc2ccccc2n1CCCOc1ccccc1` ?
[A] NOT MET

[Q] is_below(CC50 at 48 h, 20 µM) for `CCc1nc2cc(C#N)ccc2n1CCCCOc1ccccc1` ?
[A] NOT MET

[Q] is_below(CC50 at 48 h, 20 µM) for `CCc1nc2ccc(C#N)cc2n1CCCCOc1ccccc1` ?
[A] NOT MET

====

Assign solubility thermodynamic to each entry below.
Experiment: Thermodynamic equilibrium solubility of the compound using 10 mM DMSO at pH 2
Format: physicochemical
Details: buffer, read-out: Therm_solubility
The reply must contain the numeric value and, after it, the unit.

As a guide, the following entries are already answered.
In [3]: df
Out[3]:
                               input_smiles          measurement_name  value_reported
0           CCc1nc2ccc(C)cc2n1CCCCOc1ccccc1  solubility thermodynamic       630 µg/mL
1  CCc1nc2ccccc2n1CCCCSc1nnc(-c2ccc(Cl)cc2)o1  solubility thermodynamic       830 µg/mL
2          CCc1nc2cc(Cl)ccc2n1CCCCOc1ccccc1  solubility thermodynamic       670 µg/mL

Consider the additional compound presented here.
[Q] Give me measured solubility thermodynamic, please, for this compound: `CCc1nc2ccccc2n1CCCCNc1ccccc1`
[A] 610 µg/mL

====

Test: Metabolic stability of the compound in human liver microsomes assessed as compound turnover at 2 uM after 30 mins by LC-MS analysis
Format: ADME
Conditions: read-out: Drug metabolism
Measurement name: metabolised at 0.5 h, 2 µM
The reply must contain the numeric value and, after it, the unit.

As a guide, the following entries are already answered.
>>> print(df.to_string())
                       input_smiles            measurement_name  value_reported
0  CCc1nc2cc(Cl)ccc2n1CCCCOc1ccccc1  metabolised at 0.5 h, 2 µM           98.5%
1      CCc1nc2ccccc2n1CCCCNc1ccccc1  metabolised at 0.5 h, 2 µM           90.6%
2   CCc1nc2ccc(C)cc2n1CCCCOc1ccccc1  metabolised at 0.5 h, 2 µM           98.9%

Consider the additional molecule presented here.
[Q] Give me measured metabolised at 0.5 h, 2 µM, please, for this molecule: `CCc1nc2ccccc2n1CCCCSc1nnc(-c2ccc(Cl)cc2)o1`
[A] 99.9%

====

Assign CC50 at 48 h to each entry below.
Test: Cytotoxicity against African green monkey Vero cells after 2 days by luminescent assay
Type: cell-based
Conditions: chlorocebus sabaeus, read-out: TC50
Numbers only, in µM.

As a guide, the following entries are already answered.
>>> df
                                   molecule  measurement_name  unit_of_measurement  value_reported
0   c1ccc(OCCCCn2c(-c3ccccc3)nc3ccccc32)cc1      CC50 at 48 h                   µM              19
1  Cc1ccc2nc(C(C)O)n(CCCCOc3ccc(C)c(Cl)c3)c2c1 (stereo not drawn)      CC50 at 48 h                   µM             8.6

For the 3 molecules below, give their CC50 at 48 h values.
1. CCc1nc2ccc(C)cc2n1CCCSc1ccc(C)cc1
2. CCc1nc2ccccc2n1CCCCOc1ccccc1C
3. CCc1nc2ccccc2n1CCCCOc1ccccc1Cl

[A]
1: 12; 2: 16; 3: 16

For the 2 molecules below, give their CC50 at 48 h values.
1. CCc1nc2ccccc2n1CCCCOCc1ccccc1
2. CCc1nc2ccccc2n1CCCCOc1ccc(Cl)cc1C

[A]
[32, 20]

For the 4 molecules below, give their CC50 at 48 h values.
1. CCc1nc2ccccc2n1CCCCOc1ccc(Cl)cc1F
2. CCc1nc2ccccc2n1CCCCOc1c(Cl)cccc1Cl
3. CCc1nc2ccc(C)cc2n1CCCCNc1ccc(C)cc1C
4. CCc1nc2ccc(C)cc2n1CCCCNc1ccc(C)cc1

[A]
1. 5.7
2. 13
3. 20
4. 20

====

Experiment: Metabolic stability of the compound in rat liver microsomes assessed as compound turnover at 2 uM after 30 mins by LC-MS analysis
Assay type: ADME
Conditions: read-out: Drug metabolism
Measurement name: metabolised at 0.5 h, 2 µM (%)
One number for each entry, in %.

As a guide, the following entries are already answered.
In [3]: df
Out[3]:
                               input_smiles            measurement_name  value_reported
0           CCc1nc2ccc(C)cc2n1CCCCOc1ccccc1  metabolised at 0.5 h, 2 µM            99.9
1          CCc1nc2cc(Cl)ccc2n1CCCCOc1ccccc1  metabolised at 0.5 h, 2 µM            99.7
2  CCc1nc2ccccc2n1CCCCSc1nnc(-c2ccc(Cl)cc2)o1  metabolised at 0.5 h, 2 µM            99.9

[Q] Give me measured metabolised at 0.5 h, 2 µM, please, for this compound: `CCc1nc2ccccc2n1CCCCNc1ccccc1`
[A] 99.9

====

Experiment: Cytotoxicity against African green monkey Vero cells after 2 days by luminescent assay
Assay type: cell-based
Details: chlorocebus sabaeus, read-out: TC50
Assign CC50 at 48 h to each entry below.
Answers are plain numbers, in µM.

As a guide, the following entries are already answered.
>>> df
                           input_smiles  value_reported
0          CCc1nc2ccccc2n1CCCCSc1ccccc1              31
1      CCc1nc2ccc(Cl)cc2n1CCCCOc1ccccc1              25
2  CCc1nc2ccc(C)cc2n1CCCOc1ccc(C)c(C)c1             7.3
3       CCc1nc2ccc(C)cc2n1CCCCNc1ccccc1              21
4      CCc1nc2cc(Cl)cnc2n1CCCCOc1ccccc1              38

For the 6 molecules below, give their CC50 at 48 h values.
1. CCc1nc2ccccc2n1CCCCOc1ccc(Cl)cc1Cl
2. CCc1nc2ccccc2n1CCCCOc1ccc(C)cc1
3. c1ccc(OCCCCn2c(N3CCOCC3)nc3ccccc32)cc1
4. CCc1nc2cnc(C)cc2n1CCCCOc1ccccc1
5. CCc1nc2ccccc2n1CCCCOc1ccccc1
6. CCc1nc2ccccc2n1CCCCOc1cccc(C)c1

[A]
23
14
20
71
21
19

For the 8 molecules below, give their CC50 at 48 h values.
1. CCc1nc2ccc(C)cc2n1CCCCNc1ccc(C)c(Br)c1
2. CCc1nc2ccccc2n1CCCCOc1cc(C)c(CN2CCOCC2)cc1C
3. CCc1nc2ccccc2n1CCCCSc1nnc(-c2ccc(Cl)cc2)o1
4. CCc1nc2ccccc2n1CCCCOc1cc(C)c(Cl)c([N+](=O)[O-])c1
5. CCc1nc2ccccc2n1CCCCOc1cccc(Cl)c1
6. CCc1nc2ccccc2n1CCCCOc1ccc(N2CCOCC2)cc1
7. CCc1nc2ccc(C)cc2n1CCCOc1ccc(C)cc1
8. CCc1nc2ccc(C)cc2n1CCCCOc1ccccc1

[A]
[12, 48, 22, 18, 22, 32, 15, 18]
